experiment: Cytotoxicity against human SW1353 cells after 30 mins by ATP-dependent luciferase luminescence assay; format: cell-based
MEASUREMENT NAME: CC50 at 0.5 h

> print(dat)
                          compound.structure  reported.value
 1  O=C(Nc1ccc(N2CCNCC2)cc1C(F)(F)F)c1ccc(-c2ccc(Cl)cc2)o1           18 µM
 2  O=C(Nc1ccc(N2CCNCC2)cc1)c1ccc(-c2ccc(C(F)(F)F)cc2)o1         > 15 µM
 3  O=C(Nc1ccc(N2CCNCC2)c(F)c1)c1ccc(-c2ccc(Cl)cc2)o1           16 µM
 4  CCN(C(=O)c1ccc(-c2ccc(Cl)cc2)o1)c1ccc(N2CCNCC2)cc1          > 8 µM
 5  O=C(Nc1ccc(N2CCNCC2)cc1)c1ccc(-c2ccc(Cl)cc2)o1         > 10 µM
 6  O=C(Nc1ccc(C2=CCNCC2)cc1)c1ccc(-c2ccc(Cl)cc2)o1          6.5 µM
 7  O=C(c1ccc(-c2ccc(Cl)cc2)o1)N(Cc1ccccn1)c1ccc(N2CCNCC2)cc1         > 20 µM
 8  O=C(Nc1ccc(N2CCNCC2)cc1)c1cccc(-c2ccc(Cl)cc2)n1         > 10 µM
 9  O=C(Nc1ccc(N2CCNCC2)cc1)c1cc(-c2ccc(Cl)cc2)on1            1 µM
10  O=C(Nc1ccc(N2CCNCC2)cc1)c1ccc(-c2ccc(Cl)s2)o1         > 20 µM

* * *

target: Casein kinase I isoform delta (Homo sapiens); experiment: Inhibition of human CSNK1D
Sequence (P48730 whole entry, canonical isoform): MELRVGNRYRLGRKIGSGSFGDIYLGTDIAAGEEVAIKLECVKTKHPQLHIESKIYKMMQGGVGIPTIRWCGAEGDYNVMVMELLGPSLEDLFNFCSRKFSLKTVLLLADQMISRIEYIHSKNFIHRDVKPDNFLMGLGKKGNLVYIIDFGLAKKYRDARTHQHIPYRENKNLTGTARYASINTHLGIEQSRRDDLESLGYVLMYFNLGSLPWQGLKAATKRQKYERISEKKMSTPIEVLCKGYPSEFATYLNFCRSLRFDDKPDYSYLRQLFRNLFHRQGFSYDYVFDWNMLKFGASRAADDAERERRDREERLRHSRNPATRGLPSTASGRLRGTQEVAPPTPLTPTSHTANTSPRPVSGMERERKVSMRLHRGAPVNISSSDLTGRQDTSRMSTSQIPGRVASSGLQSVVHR
MEASUREMENT NAME: IC50

> print(dat)
                         compound.structure  reported.value
1  O=C(Nc1ccc(N2CCNCC2)cc1)c1ccc(-c2ccc(Cl)cc2)o1         > 30 µM

* * *

molecular target: Inhibitor of nuclear factor kappa-B kinase subunit beta (Homo sapiens); assay: Inhibition of human IKKB
Sequence (O14920 whole entry): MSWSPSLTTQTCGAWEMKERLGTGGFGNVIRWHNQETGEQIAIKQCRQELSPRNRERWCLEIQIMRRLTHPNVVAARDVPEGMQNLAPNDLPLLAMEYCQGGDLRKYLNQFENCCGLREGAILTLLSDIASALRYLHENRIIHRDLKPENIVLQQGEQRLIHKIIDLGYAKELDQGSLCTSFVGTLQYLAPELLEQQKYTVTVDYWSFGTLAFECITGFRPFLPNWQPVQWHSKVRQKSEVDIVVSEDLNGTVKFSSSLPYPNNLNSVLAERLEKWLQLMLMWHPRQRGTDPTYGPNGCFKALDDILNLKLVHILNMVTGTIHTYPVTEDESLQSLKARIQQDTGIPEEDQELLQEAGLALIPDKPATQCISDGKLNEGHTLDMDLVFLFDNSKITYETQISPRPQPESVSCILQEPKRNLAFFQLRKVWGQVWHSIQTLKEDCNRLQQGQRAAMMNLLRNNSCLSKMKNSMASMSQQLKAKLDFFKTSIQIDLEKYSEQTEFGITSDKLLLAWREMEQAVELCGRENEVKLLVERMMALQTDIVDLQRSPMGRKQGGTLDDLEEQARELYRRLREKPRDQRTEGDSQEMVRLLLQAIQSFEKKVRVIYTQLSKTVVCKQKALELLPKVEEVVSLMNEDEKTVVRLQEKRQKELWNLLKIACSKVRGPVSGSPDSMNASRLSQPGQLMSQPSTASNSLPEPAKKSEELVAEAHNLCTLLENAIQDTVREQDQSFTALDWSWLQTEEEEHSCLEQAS
MEASUREMENT NAME: IC50

> print(dat)
                         compound.structure  reported.value
1  O=C(Nc1ccc(N2CCNCC2)cc1)c1ccc(-c2ccc(Cl)cc2)o1         > 30 µM

* * *

The entries below come with measured log10 of CC50 at 0.5 h values attached.
assay: Cytotoxicity against human SW1353 cells after 30 mins by ATP-dependent luciferase luminescence assay; assay type: cell-based
MEASUREMENT NAME: log10 of CC50 at 0.5 h (log10 of the value in µM)

> print(dat)
                         compound.structure        measurement.name  reported.value
1  CCCCN(C(=O)c1ccc(-c2ccc(Cl)cc2)o1)c1ccc(N2CCNCC2)cc1  log10 of CC50 at 0.5 h            1.28
2  O=C(Nc1ccc(N2CCNCC2)cc1)c1ccc(-c2ccccc2Cl)o1  log10 of CC50 at 0.5 h            1.18
3  O=C(Nc1ccc(N2CCNCC2)cc1)c1ccc(-c2ccc(Cl)cc2Cl)o1  log10 of CC50 at 0.5 h            0.91
4  Cc1cc(Cl)ccc1-c1ccc(C(=O)Nc2ccc(N3CCNCC3)cc2)o1  log10 of CC50 at 0.5 h            0.94
5  O=C(Nc1ccc(N2CCNCC2)cc1)c1csc(-c2ccc(Cl)cc2)n1  log10 of CC50 at 0.5 h           -0.05
6  O=C(Nc1ccc(N2CCNCC2)cc1)c1ccc(-c2ccc(Cl)cc2)s1  log10 of CC50 at 0.5 h            0.90
7  O=C(Nc1ccc(N2CCNCC2)cc1)c1ccc(-c2cccc(Cl)c2)o1  log10 of CC50 at 0.5 h            1.11

* * *

biological target: MAP kinase-activated protein kinase 2 (Homo sapiens); assay: Inhibition of MK2 using Acam peptide as substrate incubated for 30 mins prior to substrate addition measured after 10 mins using 100 uM ATP by DELFIA assay
Sequence (P49137 whole entry): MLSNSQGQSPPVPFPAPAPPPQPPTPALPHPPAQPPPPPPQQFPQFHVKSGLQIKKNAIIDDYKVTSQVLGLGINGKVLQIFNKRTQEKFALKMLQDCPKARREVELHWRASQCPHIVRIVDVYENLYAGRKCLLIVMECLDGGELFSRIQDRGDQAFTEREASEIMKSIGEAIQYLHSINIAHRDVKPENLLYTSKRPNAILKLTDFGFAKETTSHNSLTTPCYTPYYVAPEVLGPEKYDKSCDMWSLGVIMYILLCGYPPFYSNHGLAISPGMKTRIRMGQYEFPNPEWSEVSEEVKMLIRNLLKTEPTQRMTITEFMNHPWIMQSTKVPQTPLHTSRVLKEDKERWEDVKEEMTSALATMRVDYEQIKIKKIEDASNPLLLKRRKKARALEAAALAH
The entries below come with measured IC50 values attached.
MEASUREMENT NAME: IC50

> print(dat)
                          compound.structure  reported.value
 1  O=C(Nc1ccc(N2CCNCC2)c(F)c1)c1ccc(-c2ccc(Cl)cc2)o1          6.7 µM
 2  CN1CCN(c2ccc(NC(=O)c3ccc(-c4ccc(Cl)cc4)o3)cc2)CC1            6 µM
 3  CC(C)N(C(=O)c1ccc(-c2ccc(Cl)cc2)o1)c1ccc(N2CCNCC2)cc1          1.2 µM
 4  O=C(Nc1ccc(C2=CCNCC2)cc1)c1ccc(-c2ccc(Cl)cc2)o1          2.1 µM
 5  O=C(Nc1ccc(N2CCNCC2)cc1)c1ccc(-c2cccc(Cl)c2)o1         > 20 µM
 6  Cc1cc(Cl)ccc1-c1ccc(C(=O)Nc2ccc(N3CCNCC3)cc2)o1          5.9 µM
 7  COc1ccc(-c2ccc(C(=O)Nc3ccc(N4CCNCC4)cc3)o2)cc1           22 µM
 8  O=C(Nc1ccc(N2CCNCC2)cc1)c1cc(-c2ccc(Cl)cc2)on1          7.5 µM
 9  O=C(Nc1ccc(N2CCNCC2)cc1)c1cccc(-c2ccc(Cl)cc2)n1           11 µM
10  O=C(Nc1ccc(N2CCNCC2)cc1C(F)(F)F)c1ccc(-c2ccc(Cl)cc2)o1         > 20 µM
11  O=C(Nc1ccc(N2CCNCC2)cc1)c1ccc(-c2ccc(Cl)s2)o1          6.9 µM
12  O=C(Nc1ccc(N2CCNCC2)cc1)c1ccc(-c2ccc(Cl)cc2)s1            9 µM
13  O=C(Nc1ccc(N2CCNCC2)cc1)c1ccc(-c2ccc(Cl)cc2Cl)o1          7.6 µM
14  O=C(Nc1ccc(N2CCNCC2)cc1)c1csc(-c2ccc(Cl)cc2)n1          9.5 µM
15  O=C(Nc1ccc(N2CCNCC2=O)cc1)c1ccc(-c2ccc(Cl)cc2)o1           15 µM
16  O=C(Nc1ccc(N2CCNCC2)cc1)c1ccc(-c2ccc(Cl)cc2)o1          5.5 µM
17  O=C(Nc1ccc(N2CCNCC2)cc1)c1ccc(-c2ccc(C(F)(F)F)cc2)o1           20 µM
18  O=C(Nc1ccc(N2CCNCC2)cc1)c1ccc(-c2ccccc2Cl)o1            8 µM
19  O=C(Nc1ccc(N2CCC(O)CC2)cc1)c1ccc(-c2ccc(Cl)cc2)o1         > 20 µM

* * *

The entries below come with measured CC50 at 0.5 h values attached.
experiment: Cytotoxicity against human SW1353 cells after 30 mins by ATP-dependent luciferase luminescence assay; type: cell-based
MEASUREMENT NAME: CC50 at 0.5 h

> print(dat)
                         compound.structure  reported.value
1  CN(C(=O)c1ccc(-c2ccc(Cl)cc2)o1)c1ccc(N2CCNCC2)cc1         > 20 µM
2  Cn1ccnc1CN(C(=O)c1ccc(-c2ccc(Cl)cc2)o1)c1ccc(N2CCNCC2)cc1         > 20 µM
3  CC(C)N(C(=O)c1ccc(-c2ccc(Cl)cc2)o1)c1ccc(N2CCNCC2)cc1         > 20 µM
4  CCCN(C(=O)c1ccc(-c2ccc(Cl)cc2)o1)c1ccc(N2CCNCC2)cc1         > 20 µM
5  O=C(c1ccc(-c2ccc(Cl)cc2)o1)N(Cc1ccncc1)c1ccc(N2CCNCC2)cc1          > 8 µM

// provenance: ChEMBL document CHEMBL2016522
